Test system: RPMI-8226 leukemia
experimental_protocol: NCI-60 one-dose screen, 48 h
settings: 10 µM unless noted
About 83,000 compounds went through this panel and 20% of them were active in at least one assay; those are over-represented in the sample as a whole. Activity calls are given as the source filed them. How the source made its calls: active means growth percent below 10; inactive means the rest.
Hi there, use one of these labels in your reply, thanks! class 1 = active, class 0 = inactive

In this assay, the call recorded for "CCCCc1nc(/C=N/Nc2nc(Nc3ccccc3)nc(Nc3ccc(S(N)(=O)=O)cc3)n2)c(Cl)[nH]1" was what? class 0

In this assay, the call recorded for CCC(CC)N1C(=O)/C(=c2\sc3n(c2=O)NC2C(N=3)N(CC)C(=O)N2CC)c2ccccc21 (stereo not given) was what? class 0

In this assay, the call recorded for "CC1=NC2=NC(=O)/C(=C3/N=C(C)C=C(c4ccccc4)N3N)NN2C(c2ccccc2)=C1" was what? class 0

In this assay, the call recorded for C=C(C=O)[C@@H]1CC[C@]2(COC(C)=O)CC[C@]3(C)C(CC[C@@H]4[C@@]5(C)CC[C@H](OC(C)=O)C(C)(C)[C@@H]5CC[C@]43C)[C@@H]12 (stereo not given in full) was what? class 1

In this assay, the call recorded for "CCCCCc1ccc(S(=O)(=O)Nc2cc(-c3csc(NC(=O)CN4CCN(C)CC4)n3)ccc2N2CCN(C)CC2)cc1" was what? class 1

In this assay, the call recorded for "Nc1ccccc1NC(=O)c1ccc(NC(=O)C/C=C/c2cccnc2)cn1" was what? class 1

In this assay, the call recorded for Cc1cccc2c3c(sc12)C(c1ccc(F)cc1)C(C#N)=C(/N=C/c1ccc(Cl)cc1)O3 (stereo not given) was what? class 0

In this assay, the call recorded for "N#Cc1c(NC(=O)c2cccc(C(F)(F)F)c2F)sc2c1CCC(=O)C2" was what? class 1

In this assay, the call recorded for "COc1ccc(Cn2cc3c(c2-c2cc(OC)c(OC)c(OC)c2)CCc2c(CN4CCOCC4)noc2-3)cc1" was what? class 0

In this assay, the call recorded for "C=CCn1c(SCC(=O)Nc2ccc(C(=O)/C=C/c3ccc(Cl)cc3)cc2)nnc1-c1c[nH]c2ccccc12" was what? class 1

Origin of the recorded values: PubChem BioAssay (NCI)
